Data provenance is BindingDB's records for doi:10.1016/j.bioorg.2012.08.003.

IC50 overview
Target protein (sequence): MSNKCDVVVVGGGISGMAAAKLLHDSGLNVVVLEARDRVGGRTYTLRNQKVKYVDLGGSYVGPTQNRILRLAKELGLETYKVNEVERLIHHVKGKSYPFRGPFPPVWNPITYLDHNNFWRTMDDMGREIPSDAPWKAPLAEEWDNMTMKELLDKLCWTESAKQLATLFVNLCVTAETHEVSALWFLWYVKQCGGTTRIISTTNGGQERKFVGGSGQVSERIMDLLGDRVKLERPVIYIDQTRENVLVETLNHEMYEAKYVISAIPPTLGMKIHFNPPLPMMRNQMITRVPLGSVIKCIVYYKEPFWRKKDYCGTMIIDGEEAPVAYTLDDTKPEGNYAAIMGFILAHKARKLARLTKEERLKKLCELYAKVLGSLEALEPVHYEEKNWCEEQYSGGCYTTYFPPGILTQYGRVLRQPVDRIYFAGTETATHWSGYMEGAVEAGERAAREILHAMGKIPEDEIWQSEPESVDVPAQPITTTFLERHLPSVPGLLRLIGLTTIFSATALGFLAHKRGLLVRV
value-type: IC50

[[record]]
compound_string = "N#Cc1ccc(COc2ccc3c(=O)ccoc3c2)cc1"
measured_value = "117 nM"

[[record]]
compound_string = "O=c1ccoc2cc(OCc3ccc(Cl)cc3)ccc12"
measured_value = "29 nM"

[[record]]
compound_string = "O=c1ccoc2cc(OCCc3ccc(Br)cc3)ccc12"
measured_value = "317 nM"

[[record]]
compound_string = "O=c1ccoc2cc(OCc3cccc(F)c3)ccc12"
measured_value = "44 nM"

[[record]]
compound_string = "N#Cc1cccc(COc2ccc3c(=O)ccoc3c2)c1"
measured_value = "370 nM"


###

IC50 overview
# assay-target: Amine oxidase [flavin-containing] A (Homo sapiens, UniProt P21397)
# Sequence (P21397 whole entry): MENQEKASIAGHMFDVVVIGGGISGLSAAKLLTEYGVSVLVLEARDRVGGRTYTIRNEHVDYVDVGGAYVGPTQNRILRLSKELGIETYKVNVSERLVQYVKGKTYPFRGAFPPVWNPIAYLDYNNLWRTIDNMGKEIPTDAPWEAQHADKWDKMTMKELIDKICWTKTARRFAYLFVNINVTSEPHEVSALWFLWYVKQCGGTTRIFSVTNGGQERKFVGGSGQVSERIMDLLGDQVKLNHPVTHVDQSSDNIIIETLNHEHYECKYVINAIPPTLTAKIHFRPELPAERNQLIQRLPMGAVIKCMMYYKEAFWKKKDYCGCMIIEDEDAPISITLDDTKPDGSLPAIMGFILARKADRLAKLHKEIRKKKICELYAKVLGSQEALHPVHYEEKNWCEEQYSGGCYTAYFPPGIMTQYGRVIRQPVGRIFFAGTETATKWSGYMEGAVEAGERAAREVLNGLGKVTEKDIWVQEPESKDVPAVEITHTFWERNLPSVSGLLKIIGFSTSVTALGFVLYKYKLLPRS
value-type: IC50 (µM)

[[record]]
compound_string = "O=c1ccoc2cc(OCc3ccccc3)ccc12"
assay_target = "Amine oxidase [flavin-containing] A (Homo sapiens, UniProt P21397)"
measurement_units = "µM"
measured_value = 5.33

[[record]]
compound_string = "O=c1ccoc2cc(OCc3ccc(F)cc3)ccc12"
assay_target = "Amine oxidase [flavin-containing] A (Homo sapiens, UniProt P21397)"
measurement_units = "µM"
measured_value = 1.17

[[record]]
compound_string = "O=c1ccoc2cc(OCc3cccc(Cl)c3)ccc12"
assay_target = "Amine oxidase [flavin-containing] A (Homo sapiens, UniProt P21397)"
measurement_units = "µM"
measured_value = 1.52

[[record]]
compound_string = "O=c1ccoc2cc(OCCCc3ccccc3)ccc12"
assay_target = "Amine oxidase [flavin-containing] A (Homo sapiens, UniProt P21397)"
measurement_units = "µM"
measured_value = 3.08

[[record]]
compound_string = "O=c1ccoc2cc(OCc3ccc(Br)cc3)ccc12"
assay_target = "Amine oxidase [flavin-containing] A (Homo sapiens, UniProt P21397)"
measurement_units = "µM"
measured_value = 0.592

[[record]]
compound_string = "N#Cc1cccc(COc2ccc3c(=O)ccoc3c2)c1"
assay_target = "Amine oxidase [flavin-containing] A (Homo sapiens, UniProt P21397)"
measurement_units = "µM"
measured_value = 0.784

